Hey, just so you know, these numbers are from PubChem BioAssay (NCATS).

Listing: activity change, negative = inhibition of selected compounds
# protocol: qHTS Assay for Lipid Storage Modulators (AID 1519); also: % is scaled to controls: 0 for no effect and ±100 for the full control effect
# details: Drosophila S3 cells, BODIPY lipid droplet/cell ratio, laser cytometry; at 25.7 µM (top of the series); cells loaded with oleic acid
Results filed as inconclusive are left out.
Give just the number in %; leave the unit off.

COC(=O)C1=C(C)NC(C)=C(C(=O)OC(C)C)[C@H]1c1cccc2nonc12 : -0.0066
CO/N=C(\C(=O)N[C@@H]1C(=O)N2C(C(=O)O)=C(COC(N)=O)CS[C@@H]12)c1ccco1 : 1.43

From here, focus on the item given below.
Value lookup for activity change, negative = inhibition; key = "O=c1[nH]c(=O)n([C@@H]2C[C@H](O)[C@H](CO)O2)cc1C(F)(F)F"
-0.507
